System: KM12 colon
Test: NCI tumour cell line growth inhibition, 48 h
Readings of TGI for the listed molecules
Number in µM, nothing else.

CCCCCCCCCCCCCCCCP(=O)(OC)OC = 32.2

Kindly consider the entry below.
Entry `c1cc(N2CCCC2)c2nc(-c3[nH]ncc3Nc3ncnc4[nH]ccc34)[nH]c2c1` , tested on KM12 colon, has a reported TGI of 0.459

====

Test system: MDA-MB-231 breast
Experiment: NCI tumour cell line growth inhibition, 48 h
Readings of TGI for the listed molecules

O=c1oc2ccccc2c(O)c1/C=N/C(=S)Nc1ccccc1 = > 100 µM
COc1cccc2c1C(=O)c1c(O)c3c(c(O)c1C2=O)C[C@@](O)(C(=O)CO)C[C@@H]3OC1CC(N)C(O)C(C)O1 (stereo not given in full) = 4.83 µM [middle of 4 runs]
O=C1/C(=C/c2cccc(O)c2)COc2ccccc21 = 21.4 µM
CCCCCC(/C=N/Nc1ccccc1)C(O)(C(F)(F)F)C(F)(F)F (stereo not given) = > 100 µM

Kindly consider the entry below.
Entry `O=C1CNc2cc(N3CCN(c4ccccc4)CC3)ccc2N1` , tested on MDA-MB-231 breast, has a reported TGI of > 100 µM

====

System: MALME-3M melanoma
Assay: NCI tumour cell line growth inhibition, 48 h
property label: TGI

O=P(O)(OP(=O)(O)c1ccccc1)c1ccccc1 (tested in a mixture with another compound) = > 100 µM
O=c1[nH]c2cc(C(F)(F)F)ccc2nc1CBr = 27.4 µM
C[C@]12CCC3c4ccc(O)cc4CC[C@H]3C1CC(=O)N(CCN1CCCC1)C2=O (stereo not given in full) = > 10 µM
O=C(CC(=O)Nc1ccccc1Cl)NNC(c1cc(N=Nc2ccc(Br)cc2)ccc1O)P(O)O (stereo not given) = > 10 µM
COc1cc(OC)cc(Oc2nc3cc(N)cc(N)c3nc2-c2ccccc2)c1 = 5.09 µM

Please fill in: TGI reported for `COc1ccc(-c2cc(=O)c3c(O)c(OC)c(O)c(OC)c3o2)cc1OC` = > 100 µM

Please fill in: TGI reported for `Cc1cc(S(=O)(=O)Nc2nc(N)nc(N(C)C)n2)c(S)cc1Cl` = > 10 µM

Please fill in: TGI reported for CNC(=O)CCC(NC(=O)OC(C)(C)C)C(=O)NC(Cc1ccc(NC(=O)CCCCC(C)=O)cc1)C(=O)NCC(=O)NC (stereo not given) = > 100 µM

Please fill in: TGI reported for `C=CCNC(=O)/C=C\C(=O)O` = > 100 µM

Please fill in: TGI reported for `COc1ccc(Nc2nc3cc(C(F)(F)F)ccc3nc2C(=O)O)cc1OC` = > 100 µM

Please fill in: TGI reported for `O=C1NC(=O)C(C(=O)C(=O)Nc2cccc(C(F)(F)F)c2)C(=O)N1` = > 100 µM

Please fill in: TGI reported for Nc1nc2c(c3cnccc13)C(c1cccc(Br)c1)Cc1cnccc1-2 (stereo not given) = 18.7 µM

Please fill in: TGI reported for `COc1ccc(/C=C/C(=O)C(C)C)cc1` = > 100 µM

Please fill in: TGI reported for `COc1cc(/C=N/NC(=O)c2ccc(NC(C)=O)cc2OC)ccc1O` = > 100 µM

====

Test system: RXF 393 renal
Assay: NCI tumour cell line growth inhibition, 48 h
property label: log10 of TGI (log10 of the value in µM)
Record value = log10 of TGI given in µM.

Known results for molecules:
CCN1CCN(c2cc(C)nc(N(CCCNc3ccnc4cc(Cl)ccc34)Cc3cccs3)n2)CC1 = 0.50
COC(O)C12OC3CO[Si](C(C)C)(C(C)C)O[Si](C(C)C)(C(C)C)OC3C1Oc1nc(=O)ccn12 (stereo not drawn) = 1.39
C=C(C)[C@@H]1CC[C@]2(CNCCO)CC[C@]3(C)[C@H](CC[C@@H]4[C@@]5(C)CCC(N)[C@@](C)(CO)[C@@H]5CC[C@]43C)[C@@H]12 (stereo partly drawn) = 0.42
COc1cc(/C=C2\CC3C4CCC5=CC(=O)CC[C@]5(C)C4CC[C@]3(C)C2=O)ccc1OCCCn1ccnc1 (stereo partly drawn) = 0.84
CC[C@]12C=CCN3CC[C@]4(C(=C(C(=O)OC)C1)Nc1cc(OC)c(OC(C)=O)cc14)[C@@H]32 = 0.95
CC12OC(=O)[C@@]3(O)CCC4C(C[C@H]5O[C@]56CC=CC(=O)[C@]46C)C45OC[C@H]6C(=O)O[C@@H]1C[C@@]6(C)[C@H](C4=O)C23O5 (stereo partly drawn) = 0.39
COc1cc(C2c3cc4c(cc3OC(N3CCCCC3)C2C)OCO4)cc(OC)c1OC (stereo not drawn) = 0.74
Cc1c(NC(=O)c2cc(C(N)=O)nc3cc(F)ccc23)c(C(F)(F)F)nn1Cc1ccc(C#N)cc1 = 1.46

Please fill in: log10 of TGI reported for `CC#Cc1nc2ccccc2c(=O)[nH]1` = 0.51

====

Tested on: SK-MEL-2 melanoma
Assay: NCI tumour cell line growth inhibition, 48 h
property label: TGI

Known results for molecules:
Cc1ccc2nc(C=Nc3ccccc3Cl)cc(C)c2c1 = > 100 µM
CN(C)CCNC(=O)c1ccc(Cl)c2c(Nc3ccc(S(=O)(=O)N=C(N)N)cc3)c3ccccc3nc12 = 24.5 µM
O=[N+]([O-])c1ccc(N=Nc2c(O)ccc3cc(S(=O)(=O)O)cc(S(=O)(=O)O)c23)cc1 = > 100 µM
Cc1ccc(N(C)S(=O)(=O)c2ccc([N+](=O)[O-])cc2)cc1 = > 100 µM

Kindly consider the entry below.
Please fill in: TGI reported for CCCCCC(/C=N/Nc1ccccc1)C(O)(C(F)(F)F)C(F)(F)F (stereo not given) = > 100 µM

====

Test system: HCC-2998 colon
Assay: NCI tumour cell line growth inhibition, 48 h
property label: TGI

N#CCCC1(CCC#N)CCc2ccccc2C1=O = > 100 µM
O=C1CNc2cc(N3CCN(c4ccccc4)CC3)ccc2N1 = > 100 µM

Please fill in: TGI reported for CC(=O)OC1C[C@@H](C)C2(C[C@H](O)c3ccoc3)C(=O)OC[C@]13C2CCC(O)C31CO1 (stereo partly drawn) = > 100 µM

Please fill in: TGI reported for `O=C1/C(=C/c2ccc3c(c2)CCC3)Cc2cc3c(cc21)CCC3` = > 100 µM

Please fill in: TGI reported for `O=C1NC(=O)C(C(=O)C(=O)Nc2cccc(C(F)(F)F)c2)C(=O)N1` = > 100 µM

Please fill in: TGI reported for `CN(CCNC(=O)c1[nH]nc2c1Cc1ccccc1-2)CCNC(=O)c1[nH]nc2c1Cc1ccccc1-2` = 29.4 µM

Please fill in: TGI reported for `O=c1oc2ccccc2c(O)c1/C=N/C(=S)Nc1ccccc1` = > 100 µM

Please fill in: TGI reported for C[C@]12CCc3nonc3C1CC[C@@H]1C2CC[C@]2(C)C(=O)CCC12 (stereo partly drawn) = 71.2 µM

Please fill in: TGI reported for CC1(C)OCC(C2CCC3(C)C4=CCC5C(C)(C)C(O)CCC5(C)C4CCC23C)CC(O)C1O (stereo not drawn) = 32.3 µM

Please fill in: TGI reported for CC(NC(=O)C(CC(=O)OCc1ccccc1)NC(=O)OCc1ccccc1)c1ccccc1 (stereo not drawn) = > 100 µM

Please fill in: TGI reported for `O=C([O-])c1ccc2c(c1)-c1nc-2nc2[n-]c(nc3nc(nc4[n-]c(n1)c1ccc(C(=O)[O-])cc41)-c1ccc(C(=O)[O-])cc1-3)c1ccc(C(=O)[O-])cc21.[Gd+3].[K+]` = > 100 µM

Please fill in: TGI reported for CCOC1=CP(=O)(OCC)CC(C)=C1Cl (stereo not drawn) = > 100 µM

Please fill in: TGI reported for `CC(=O)Nc1cc(C(=O)Nc2cc(C(=O)Nc3cc(C(=O)Nc4cc(C(=O)Nc5cc(C(=O)NCCC(=O)NCCCN(C)C)n(C)c5)n(C)c4)n(C)c3)n(C)c2)n(C)c1` = > 100 µM

Please fill in: TGI reported for `Cc1ccc(O)c(N=Nc2c(O)cc(S(=O)(=O)O)c3ccccc23)c1` = > 100 µM

Please fill in: TGI reported for `COC(=O)[C@@H](Nc1ccccc1)[C@@]1(C(=O)OC)SC12c1ccccc1-c1ccccc12` = > 100 µM

Please fill in: TGI reported for `CC(C)=CC(=O)OCC(=O)O[C@@H]1C[C@]2(C(C)C)O[C@@]1(C)[C@@H]1CC[C@@H](C)[C@H]1[C@@H]2OC(=O)/C=C/c1ccccc1` = > 100 µM

Please fill in: TGI reported for C=C(C)[C@@H]1CC[C@]2(CNCCO)CC[C@]3(C)[C@H](CC[C@@H]4[C@@]5(C)CCC(N)[C@@](C)(CO)[C@@H]5CC[C@]43C)[C@@H]12 (stereo partly drawn) = 3.35 µM

Please fill in: TGI reported for `CN1C(NN)=NS(=O)(=O)c2ccccc21` = > 100 µM
